# System: HepG2
# test description: Antiproliferative activity against human HepG2 cells after 72 hrs by MTT assay
# Type: functional, cell-based
# measurement context: HepG2, 72 h
pIC50: −log10 of the molar value.
readout label: pIC50

- compound: "C=C(CO)[C@@H]1CC[C@]2(C(=O)OCCC(C)C)CC[C@]3(C)[C@H](CC[C@@H]4[C@@]5(C)CC[C@H](OC(C)=O)[C@@](C)(COC(C)=O)[C@@H]5CC[C@]43C)[C@@H]12"
  experimental result: 4.97
- compound: "C=C(C)[C@@H]1CC[C@]2(C(=O)OCCN3CCOCC3)CC[C@]3(C)[C@H](CC[C@@H]4[C@@]5(C)CC[C@H](O)[C@@](C)(CO)[C@@H]5CC[C@]43C)[C@@H]12"
  experimental result: 4.23
- compound: "C=C(CO)[C@@H]1CC[C@]2(C(=O)OC(C)(C)C)CC[C@]3(C)[C@H](CC[C@@H]4[C@@]5(C)CC[C@H](O)[C@@](C)(CO)[C@@H]5CC[C@]43C)[C@@H]12"
  experimental result: 4.64
- compound: "C=C(C)[C@@H]1CC[C@]2(C(=O)NCCNC(=O)CCC(=O)O)CC[C@]3(C)[C@H](CC[C@@H]4[C@@]5(C)CC[C@H](OC(C)=O)[C@@](C)(COC(C)=O)[C@@H]5CC[C@]43C)[C@@H]12"
  experimental result: 4.12
- compound: "C=C(C)[C@@H]1CC[C@]2(C(=O)NCC(=O)N3CCC[C@H]3C(=O)OC)CC[C@]3(C)[C@H](CC[C@@H]4[C@@]5(C)CC[C@H](O)[C@@](C)(CO)[C@@H]5CC[C@]43C)[C@@H]12"
  experimental result: 5.03
- compound: "C=C(C)[C@@H]1CC[C@]2(C(=O)NCC(=O)N[C@@H](C)C(=O)OC)CC[C@]3(C)[C@H](CC[C@@H]4[C@@]5(C)CC[C@H](O)[C@@](C)(CO)[C@@H]5CC[C@]43C)[C@@H]12"
  experimental result: 4.92
- compound: "C=C(CO)[C@@H]1CC[C@]2(C(=O)OCC3CCCO3)CC[C@]3(C)[C@H](CC[C@@H]4[C@@]5(C)CC[C@H](OC(C)=O)[C@@](C)(COC(C)=O)[C@@H]5CC[C@]43C)[C@@H]12 (some centres not stated)"
  experimental result: 4.73
